assay: APR_HepG2_MicrotubuleCSK_24hr: Apredica 24-hour HepG2 Assay for Microtubule CSK Stabilty (AID 2282909); conditions: HepG2 microtubule cytoskeleton imaging, actives raise or lower the signal
Calls of active or inactive are those of the source. How the source made its calls: active means hit-call score of the fitted dose curve at least 0.9, where 1 is the maximum; inactive means score below 0.9.
Outcomes: active, inactive

>>> qualitative_label("COc1cc(CCC(=O)CC(=O)CCc2ccc(O)c(OC)c2)ccc1O")
"inactive"
>>> qualitative_label("Oc1cc2ccccc2c2ccccc12")
"active"
>>> qualitative_label("CCCOc1sc(C(=O)N2CCC(c3cc(CN)ccc3F)CC2)c(C)c1Br")
"active"
>>> qualitative_label("CCC(C)(C)C1CCC(O)CC1 (centres undefined)")
"inactive"

* * *

read-out: growth arrest and DNA damage 45 (GADD45B), GADD45B (gene 4616); test: LTEA_HepaRG_GADD45B: Life Technologies and Expression Analysis (LTEA) Assay for growth arrest and DNA damage 45 (GADD45B) using HepaRG (AID 2283461); conditions: mRNA level, 48 h; actives raise or lower the signal
Active and inactive are the calls of the source. The calls were made as follows: active = hit-call score of the fitted dose curve at least 0.9, where 1 is the maximum; inactive = score below 0.9.
Outcomes: active, inactive

>>> qualitative_label("Cc1cc(C)c(O)c(C)c1")
"inactive"
>>> qualitative_label("CCCCC(CC)COC(=O)CCCCC(=O)OCC(CC)CCCC (stereo not given)")
"inactive"
>>> qualitative_label("CC(=O)CC(C)(C)O")
"inactive"
>>> qualitative_label("O=C(O)c1ccccc1C(c1ccc(O)cc1)c1ccc(O)cc1")
"inactive"
>>> qualitative_label("NC(=O)N1C(=O)C(C(=O)c2cc(Cl)cs2)c2cc(F)c(Cl)cc21 (stereo not given)")
"active"
>>> qualitative_label("c1ccc2cc3c(ccc4ccccc43)cc2c1")
"active"
>>> qualitative_label("ClC1=C(Cl)C(Cl)(Cl)C(Cl)=C1Cl")
"inactive"
>>> qualitative_label("CC1=C(/C=C/C(C)=C/C=C/C(C)=C/C(=O)O)C(C)(C)CCC1")
"inactive"
>>> qualitative_label("CCc1nn(C2CCCCC2)c2cc(C3(C#N)CCC(C(=O)O)CC3)ccc12 (stereo not given)")
"inactive"
>>> qualitative_label("COCC(C)O (stereo not given)")
"inactive"

* * *

experiment: BSK_CASM3C_SRB: Viability Assessment in the BioMAP Diversity Plus: CASM3C Assay (AID 2283050); conditions: primary human coronary artery smooth muscle cells;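 further: total protein by SRB staining as cytotoxicity measure in parallel cultures; cells exposed to compound for 24 h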
The source made the active and inactive calls. Rule for the calls: active = hit-call score of the fitted dose curve at least 0.9, where 1 is the maximum; inactive = score below 0.9.
Outcomes: 1 for active, -1 for inactive

>>> qualitative_label("CC#C[C@]1(O)CC[C@H]2[C@@H]3CCC4=CC(=O)CCC4=C3[C@@H](c3ccc(N(C)C)cc3)C[C@@]21C")
1
>>> qualitative_label("CC[C@H](C)[C@@H](C(=O)O)n1sc2ccccc2c1=O")
-1
>>> qualitative_label("CCCCCCCCCCCCCC[N+](C)(C)C")
1

* * *

read-out: Monocyte Chemoattractant Protein-1 (MCP1), CCL2 (gene 6347); test: BSK_4H_MCP1: BioMAP Diversity Plus: 4H Assay for Monocyte Chemoattractant Protein-1 (MCP1) Biomarker Activity (AID 2283018); details: primary human endothelial cells (HUVEC); actives raise or lower the signal
Calls of active or inactive are those of the source. Rule for the calls: active = hit-call score of the fitted dose curve at least 0.9, where 1 is the maximum; inactive = score below 0.9.
Outcomes: active, inactive

>>> qualitative_label("CCCCCCCCCCCCc1ccccc1S(=O)(=O)O")
"inactive"
>>> qualitative_label("Cc1oc(-c2ccccc2)nc1CCOc1ccc(C[C@H](Nc2ccccc2C(=O)c2ccccc2)C(=O)O)cc1")
"active"
>>> qualitative_label("CC(C)(C)c1cccc(C(C)(C)C)c1O")
"inactive"
>>> qualitative_label("CCc1ccc(CCOc2ccc(CC3SC(=O)NC3=O)cc2)nc1 (stereo not given)")
"inactive"
>>> qualitative_label("COCC(C)OCC(C)O (stereo not given)")
"inactive"
>>> qualitative_label("CCOC(=O)CC(O)(CC(=O)OCC)C(=O)OCC")
"inactive"
>>> qualitative_label("CCCCCCCCCCCCCC[N+](C)(C)C")
"active"
>>> qualitative_label("O=c1c(-c2ccc(O)cc2)coc2cc(O)ccc12")
"active"
>>> qualitative_label("CN(C)C=O")
"inactive"
>>> qualitative_label("N#C[C@@H]1CC(F)(F)CN1C(=O)CNC1CC2CCC(C1)N2c1ncccn1 (stereo not given in full)")
"inactive"
